test system: HIV-1 strains (SKI, RF, DV, IIIB, ADP/141); assay: microbe, parasite or virus in culture; type: cell-based; conditions: Human immunodeficiency virus 1, IIIB, CEM-SS, read-out: IC50 (cpe assay), RF (CEM-SS), MOI 0.01
Measurement Kind: pIC50
Units for pIC50: none; it is -log10 of a concentration expressed in mol/L.

Ask: Give a short answer stating reported pIC50 for `Cc1cn([C@H]2C[C@H](N=[N+]=[N-])[C@@H](CO)O2)c(=O)[nH]c1=O` .
Result: 8.00

====

Entries and their IC50
molecular target: recombinant HIV-1 integrase (wild-type) (Human immunodeficiency virus type 1 group M subtype B); assay: HIV-1 integrase 3′-processing and strand transfer assays; assay type: biochemical; set-up: Purified recombinant HIV-1 integrase enzyme (wild-type) was a generous gift from Dr. R. Craigie; purchased gift of Dr. R. Craigie, Laboratory of Molecular Biology, NIDDK (not bought); settings: 3′-processing; read-out: Anti-Integrase Assay IC50 3′-proc

Nc1ccn([C@H]2CC[C@@H](CO)O2)c(=O)n1    > 1 µM

Let's switch to this compound now.
Ask: Return IC50 for the following compound: `Cc1cn([C@H]2C[C@H](N=[N+]=[N-])[C@@H](CO)O2)c(=O)[nH]c1=O`
Result: > 1 µM
